- measurement notes: in vivo
- measurement setup: CD1 nude, mouse, 0.5 nmol/mouse, total radioactivity, Blood uptake
experimental readout: tissue uptake at 48 h

Give the measured tissue uptake at 48 h for Cc1ccc(CCCC(=O)NCCOCCOCCOCCOCCC(=O)NCCCC[C@H](NC(=O)CN2CCN(CC(=O)O)CCN(CC(=O)O)CCN(CC(=O)O)CC2)C(=O)N[C@@H](CC(=O)O)C(=O)N[C@@H](CC2CCCCC2)C(=O)N[C@@H](Cc2ccccc2)C(=O)N[C@H](CO)C(=O)N[C@H](CCCNC(=N)N)C(=O)N[C@@H](Cc2ccc(O)cc2)C(=O)N[C@@H](CC(C)C)C(=O)N[C@@H](Cc2c[nH]c3ccccc23)C(=O)N[C@@H](CO)C(N)=O)cc1 [[^177Lu]Lu-uPAR-11, metal not drawn]
< 0.03 %ID/g

* * *

- measurement notes: in vivo
- measurement setup: CD1 nude, mouse, 0.5 nmol/mouse, total radioactivity, Kidneys uptake
experimental readout: tissue uptake at 48 h (%ID/g)
Give the value in %ID/g but do not write %ID/g after it.

Give the measured tissue uptake at 48 h for Cc1ccc(CCCC(=O)NCCOCCOCCOCCOCCC(=O)NCCCC[C@H](NC(=O)CN2CCN(CC(=O)O)CCN(CC(=O)O)CCN(CC(=O)O)CC2)C(=O)N[C@@H](CC(=O)O)C(=O)N[C@@H](CC2CCCCC2)C(=O)N[C@@H](Cc2ccccc2)C(=O)N[C@H](CO)C(=O)N[C@H](CCCNC(=N)N)C(=O)N[C@@H](Cc2ccc(O)cc2)C(=O)N[C@@H](CC(C)C)C(=O)N[C@@H](Cc2c[nH]c3ccccc23)C(=O)N[C@@H](CO)C(N)=O)cc1 [[^177Lu]Lu-uPAR-11, metal not drawn]
1.1

* * *

- measurement notes: in vivo
- measurement setup: CD1 nude, mouse, 0.5 nmol/mouse, total radioactivity, Kidneys uptake
experimental readout: tissue uptake at 4 h (%ID/g)
Give the value in %ID/g but do not write %ID/g after it.

Give the measured tissue uptake at 4 h for Cc1ccc(CCCC(=O)NCCOCCOCCOCCOCCC(=O)NC[C@H](NC(=O)CN2CCN(CC(=O)O)CCN(CC(=O)O)CCN(CC(=O)O)CC2)C(=O)N[C@@H](CC(=O)O)C(=O)N[C@@H](CC2CCCCC2)C(=O)N[C@@H](Cc2ccccc2)C(=O)N[C@H](CO)C(=O)N[C@H](CCCNC(=N)N)C(=O)N[C@@H](Cc2ccc(O)cc2)C(=O)N[C@@H](CC(C)C)C(=O)N[C@@H](Cc2c[nH]c3ccccc23)C(=O)N[C@@H](CO)C(N)=O)cc1 [[^177Lu]Lu-uPAR-14, metal not drawn]
4

* * *

Please go through the items and note down their tissue uptake at 24 h.
- measurement notes: in vivo
- measurement setup: CD1 nude, mouse, 0.5 nmol/mouse, total radioactivity, Pancreas uptake

Give the measured tissue uptake at 24 h for Cc1ccc(CCCC(=O)NCCCCCCCC(=O)NCCCC[C@H](NC(=O)CN2CCN(CC(=O)O)CCN(CC(=O)O)CCN(CC(=O)O)CC2)C(=O)N[C@@H](CC(=O)O)C(=O)N[C@@H](CC2CCCCC2)C(=O)N[C@@H](Cc2ccccc2)C(=O)N[C@H](CO)C(=O)N[C@H](CCCNC(=N)N)C(=O)N[C@@H](Cc2ccc(O)cc2)C(=O)N[C@@H](CC(C)C)C(=O)N[C@@H](Cc2c[nH]c3ccccc23)C(=O)N[C@@H](CO)C(N)=O)cc1 [[^177Lu]Lu-uPAR-12, metal not drawn]
0.79 %ID/g

Give the measured tissue uptake at 24 h for Cc1ccc(CCCC(=O)NCCOCCOCCOCCOCCC(=O)NCCCC[C@H](NC(=O)CN2CCN(CC(=O)O)CCN(CC(=O)O)CCN(CC(=O)O)CC2)C(=O)N[C@@H](CC(=O)O)C(=O)N[C@@H](CC2CCCCC2)C(=O)N[C@@H](Cc2ccccc2)C(=O)N[C@H](CO)C(=O)N[C@H](CCCNC(=N)N)C(=O)N[C@@H](Cc2ccc(O)cc2)C(=O)N[C@@H](CC(C)C)C(=O)N[C@@H](Cc2c[nH]c3ccccc23)C(=O)N[C@@H](CO)C(N)=O)cc1 [[^177Lu]Lu-uPAR-11, metal not drawn]
0.09 %ID/g

* * *

- measurement notes: in vivo
- measurement setup: CD1 nude, mouse, 0.5 nmol/mouse, total radioactivity, Pancreas uptake
experimental readout: tissue uptake at 24 h (%ID/g)
Give the value in %ID/g but do not write %ID/g after it.

Give the measured tissue uptake at 24 h for Cc1ccc(CCCC(=O)NCCOCCOCCOCCOCCC(=O)NC[C@H](NC(=O)CN2CCN(CC(=O)O)CCN(CC(=O)O)CCN(CC(=O)O)CC2)C(=O)N[C@@H](CC(=O)O)C(=O)N[C@@H](CC2CCCCC2)C(=O)N[C@@H](Cc2ccccc2)C(=O)N[C@H](CO)C(=O)N[C@H](CCCNC(=N)N)C(=O)N[C@@H](Cc2ccc(O)cc2)C(=O)N[C@@H](CC(C)C)C(=O)N[C@@H](Cc2c[nH]c3ccccc23)C(=O)N[C@@H](CO)C(N)=O)cc1 [[^177Lu]Lu-uPAR-14, metal not drawn]
0.12

* * *

- measurement notes: in vivo
- measurement setup: CD1 nude, mouse, 0.5 nmol/mouse, total radioactivity, Bone uptake
experimental readout: tissue uptake at 4 h (%ID/g)
Give the value in %ID/g but do not write %ID/g after it.

Give the measured tissue uptake at 4 h for Cc1ccc(CCCC(=O)NCCOCCOCCOCCOCCC(=O)NCCCC[C@H](NC(=O)CC[C@H](C(=O)O)N2CCN(CC(=O)O)CCN(CC(=O)O)CCN(CC(=O)O)CC2)C(=O)N[C@@H](CC(=O)O)C(=O)N[C@@H](CC2CCCCC2)C(=O)N[C@@H](Cc2ccccc2)C(=O)N[C@H](CO)C(=O)N[C@H](CCCNC(=N)N)C(=O)N[C@@H](Cc2ccc(O)cc2)C(=O)N[C@@H](CC(C)C)C(=O)N[C@@H](Cc2c[nH]c3ccccc23)C(=O)N[C@@H](CO)C(N)=O)cc1 [[^177Lu]Lu-uPAR-17, metal not drawn]
0.82

Give the measured tissue uptake at 4 h for Cc1ccc(CCCC(=O)NCCCCCCCC(=O)NCCCC[C@H](NC(=O)CN2CCN(CC(=O)O)CCN(CC(=O)O)CCN(CC(=O)O)CC2)C(=O)N[C@@H](CC(=O)O)C(=O)N[C@@H](CC2CCCCC2)C(=O)N[C@@H](Cc2ccccc2)C(=O)N[C@H](CO)C(=O)N[C@H](CCCNC(=N)N)C(=O)N[C@@H](Cc2ccc(O)cc2)C(=O)N[C@@H](CC(C)C)C(=O)N[C@@H](Cc2c[nH]c3ccccc23)C(=O)N[C@@H](CO)C(N)=O)cc1 [[^177Lu]Lu-uPAR-12, metal not drawn]
1.4

Give the measured tissue uptake at 4 h for Cc1ccc(CCCC(=O)NCCOCCOCCOCCC(=O)NCCCC[C@H](NC(=O)CN2CCN(CC(=O)O)CCN(CC(=O)O)CCN(CC(=O)O)CC2)C(=O)N[C@@H](CC(=O)O)C(=O)N[C@@H](CC2CCCCC2)C(=O)N[C@@H](Cc2ccccc2)C(=O)N[C@H](CO)C(=O)N[C@H](CCCNC(=N)N)C(=O)N[C@@H](Cc2ccc(O)cc2)C(=O)N[C@@H](CC(C)C)C(=O)N[C@@H](Cc2c[nH]c3ccccc23)C(=O)N[C@@H](CO)C(N)=O)cc1 [[^177Lu]Lu-uPAR-15, metal not drawn]
0.66

* * *

- measurement notes: in vivo
- measurement setup: CD1 nude, mouse, 0.5 nmol/mouse, total radioactivity, Spleen uptake
Please go through the items and note down their tissue uptake at 24 h.
Give the value in %ID/g but do not write %ID/g after it.

Give the measured tissue uptake at 24 h for Cc1ccc(CCCC(=O)NCCOCCOCCOCCOCCC(=O)NCCCC[C@H](NC(=O)CN2CCN(CC(=O)O)CCN(CC(=O)O)CCN(CC(=O)O)CC2)C(=O)N[C@@H](CC(=O)O)C(=O)N[C@@H](CC2CCCCC2)C(=O)N[C@@H](Cc2ccccc2)C(=O)N[C@H](CO)C(=O)N[C@H](CCCNC(=N)N)C(=O)N[C@@H](Cc2ccc(O)cc2)C(=O)N[C@@H](CC(C)C)C(=O)N[C@@H](Cc2c[nH]c3ccccc23)C(=O)N[C@@H](CO)C(N)=O)cc1 [[^177Lu]Lu-uPAR-11, metal not drawn]
0.49

Give the measured tissue uptake at 24 h for Cc1ccc(CCCC(=O)NCCOCCOCCOCCOCCOCCC(=O)NCCCC[C@H](NC(=O)CN2CCN(CC(=O)O)CCN(CC(=O)O)CCN(CC(=O)O)CC2)C(=O)N[C@@H](CC(=O)O)C(=O)N[C@@H](CC2CCCCC2)C(=O)N[C@@H](Cc2ccccc2)C(=O)N[C@H](CO)C(=O)N[C@H](CCCNC(=N)N)C(=O)N[C@@H](Cc2ccc(O)cc2)C(=O)N[C@@H](CC(C)C)C(=O)N[C@@H](Cc2c[nH]c3ccccc23)C(=O)N[C@@H](CO)C(N)=O)cc1 [[^177Lu]Lu-uPAR-18, metal not drawn]
0.42

Give the measured tissue uptake at 24 h for Cc1ccc(CCCC(=O)NCCOCCOCCOCCOCCC(=O)NCCCC[C@H](NC(=O)CC[C@H](C(=O)O)N2CCN(CC(=O)O)CCN(CC(=O)O)CCN(CC(=O)O)CC2)C(=O)N[C@@H](CC(=O)O)C(=O)N[C@@H](CC2CCCCC2)C(=O)N[C@@H](Cc2ccccc2)C(=O)N[C@H](CO)C(=O)N[C@H](CCCNC(=N)N)C(=O)N[C@@H](Cc2ccc(O)cc2)C(=O)N[C@@H](CC(C)C)C(=O)N[C@@H](Cc2c[nH]c3ccccc23)C(=O)N[C@@H](CO)C(N)=O)cc1 [[^177Lu]Lu-uPAR-17, metal not drawn]
0.13

Give the measured tissue uptake at 24 h for Cc1ccc(CCCC(=O)NCCOCCOCCOCCC(=O)NCCCC[C@H](NC(=O)CN2CCN(CC(=O)O)CCN(CC(=O)O)CCN(CC(=O)O)CC2)C(=O)N[C@@H](CC(=O)O)C(=O)N[C@@H](CC2CCCCC2)C(=O)N[C@@H](Cc2ccccc2)C(=O)N[C@H](CO)C(=O)N[C@H](CCCNC(=N)N)C(=O)N[C@@H](Cc2ccc(O)cc2)C(=O)N[C@@H](CC(C)C)C(=O)N[C@@H](Cc2c[nH]c3ccccc23)C(=O)N[C@@H](CO)C(N)=O)cc1 [[^177Lu]Lu-uPAR-15, metal not drawn]
0.51

Give the measured tissue uptake at 24 h for Cc1ccc(CCCC(=O)NCCCCCCCC(=O)NCCCC[C@H](NC(=O)CN2CCN(CC(=O)O)CCN(CC(=O)O)CCN(CC(=O)O)CC2)C(=O)N[C@@H](CC(=O)O)C(=O)N[C@@H](CC2CCCCC2)C(=O)N[C@@H](Cc2ccccc2)C(=O)N[C@H](CO)C(=O)N[C@H](CCCNC(=N)N)C(=O)N[C@@H](Cc2ccc(O)cc2)C(=O)N[C@@H](CC(C)C)C(=O)N[C@@H](Cc2c[nH]c3ccccc23)C(=O)N[C@@H](CO)C(N)=O)cc1 [[^177Lu]Lu-uPAR-12, metal not drawn]
2

Give the measured tissue uptake at 24 h for Cc1ccc(CCCC(=O)NCCOCCOCCOCCOCCC(=O)NC[C@H](NC(=O)CN2CCN(CC(=O)O)CCN(CC(=O)O)CCN(CC(=O)O)CC2)C(=O)N[C@@H](CC(=O)O)C(=O)N[C@@H](CC2CCCCC2)C(=O)N[C@@H](Cc2ccccc2)C(=O)N[C@H](CO)C(=O)N[C@H](CCCNC(=N)N)C(=O)N[C@@H](Cc2ccc(O)cc2)C(=O)N[C@@H](CC(C)C)C(=O)N[C@@H](Cc2c[nH]c3ccccc23)C(=O)N[C@@H](CO)C(N)=O)cc1 [[^177Lu]Lu-uPAR-14, metal not drawn]
0.54

Data origin, for the record: paper PMC12920294
